Multiple publications report pIC50 for Hepatocyte growth factor receptor (Homo sapiens); what follows is a combined list.
pIC50: −log10 of the molar value.

Form: Entry = Fc1ccc(F)c(CN2CCNc3ncc(-c4ccc(N5CCOCC5)nc4)cc32)c1 | System = Hepatocyte growth factor receptor (Homo sapiens) | pIC50 = ____
4.00 to 5.00

Form: Entry = Fc1ccc(F)c(CN2CCNc3ncc(-c4ccnc(N5CCOCC5)c4Cl)cc32)c1Cl | System = Hepatocyte growth factor receptor (Homo sapiens) | pIC50 = ____
5.00 to 6.00

Form: Entry = O=C(Nc1ccc(Oc2ccnc(NC(=O)C3CC3)c2)c(F)c1)c1c2n(n(-c3ccccc3)c1=O)CCOC2 | System = Hepatocyte growth factor receptor (Homo sapiens) | pIC50 = ____
8.10

Form: Entry = Cc1c(O)cccc1C(=O)c1c[nH]c2ncc(-c3cccnc3)cc12 | System = Hepatocyte growth factor receptor (Homo sapiens) | pIC50 = ____
≥ 5.00

Form: Entry = CCOc1ccn(-c2ccc(F)cc2)c(=O)c1C(=O)Nc1ccc(Oc2ccnc3cc(OCCCN4CCOCC4)c4c(c23)OCCO4)cc1Cl | System = Hepatocyte growth factor receptor (Homo sapiens) | pIC50 = ____
≥ 7.30

Form: Entry = COCCCOc1cc2nccc(Oc3ccc(NC(=O)c4cn(C)c(=O)n(-c5ccc(F)cc5)c4=O)cc3F)c2c2c1OCCO2 | System = Hepatocyte growth factor receptor (Homo sapiens) | pIC50 = ____
≥ 7.30

Form: Entry = O=C1CNc2ncc(I)cc2N1Cc1c(Cl)cccc1Cl | System = Hepatocyte growth factor receptor (Homo sapiens) | pIC50 = ____
< 4.00

Form: Entry = CCOC(=O)Nc1cccc(Cn2nc(-c3cccc(C(=O)NCCCCNC(=O)OC(C)(C)C)c3)ccc2=O)c1 | System = Hepatocyte growth factor receptor (Homo sapiens) | pIC50 = ____
6.00 to 8.00

Form: Entry = CNCCOc1cc2nccc(Oc3c(F)cc(NC(=O)c4cnccc4OCCO)cc3F)c2cc1OC | System = Hepatocyte growth factor receptor (Homo sapiens) | pIC50 = ____
≥ 7.00

Form: Entry = COc1cc2nccc(Oc3c(F)cc(NC(=O)c4cnccc4OC)cc3F)c2cc1OCCO | System = Hepatocyte growth factor receptor (Homo sapiens) | pIC50 = ____
≥ 7.00

Form: Entry = CNCCOc1cc2nccc(Oc3c(F)cc(NC(=O)c4cnccc4O[C@H]4CCOC4)cc3F)c2cc1OC | System = Hepatocyte growth factor receptor (Homo sapiens) | pIC50 = ____
≥ 7.00

Form: Entry = CCc1cc(NC(=O)Nc2ccc(Oc3ccnc(-c4cnn(C)c4)c3)cc2F)n(-c2ccc(CO)cc2)n1 | System = Hepatocyte growth factor receptor (Homo sapiens) | pIC50 = ____
> 6.00

Form: Entry = CC(C)n1cc(C(=O)Nc2ccc(Oc3ccnc4cc(OCCCO)c5c(c34)OCCO5)c(F)c2)c(=O)n(-c2ccc(F)cc2)c1=O | System = Hepatocyte growth factor receptor (Homo sapiens) | pIC50 = ____
≥ 7.30
